Attribution: PubChem BioAssay (NCI)

Listed molecules paired with reported TGI
# Tested on: SR leukemia
# procedureDetails: NCI tumour cell line growth inhibition, 48 h

- molecule: "COc1c(O)cc2oc3cc(O)c(CC=C(C)C)c(O)c3c(=O)c2c1C/C=C(\\C)CCC=C(C)C"
  targetOfAssay: "SR leukemia"
  unitsOfMeasure: "µM"
  relationalOperator: "="
  TGI: 13.2
- molecule: "CCOC(=O)C(C)c1nc2cc(F)c(N3CCOCC3)cc2[nH]c1=O (stereo not given)"
  targetOfAssay: "SR leukemia"
  unitsOfMeasure: "µM"
  relationalOperator: ">"
  TGI: 100
- molecule: "CCOC(=O)c1[nH]c2cccc3c2c1CC(Br)C3=O (stereo not given)"
  targetOfAssay: "SR leukemia"
  unitsOfMeasure: "µM"
  relationalOperator: "="
  TGI: 4.99
- molecule: "Cc1ccc([N+](=O)[O-])cc1S(=O)(=O)Nc1ccc(C2=NOC(c3ccccc3)C2)cc1 (stereo not given)"
  targetOfAssay: "SR leukemia"
  unitsOfMeasure: "µM"
  relationalOperator: "="
  TGI: 12.1
- molecule: "O=C(Nc1ncc([N+](=O)[O-])s1)c1cccc([N+](=O)[O-])c1"
  targetOfAssay: "SR leukemia"
  unitsOfMeasure: "µM"
  relationalOperator: "="
  TGI: 9.01

###

# Test system: MCF7 breast
# procedureDetails: NCI tumour cell line growth inhibition, 48 h; in the data active means GI50 below about 0.43 µM; inactive means the rest
Possible outcomes: 1 = active, -1 = inactive

- givenSmiles: "CCN(Cc1ccc(F)cc1F)c1ccc(CO)c(Cl)c1"
  assignedCategory: 1
- givenSmiles: "Clc1ccc(Nc2ccnc(NCCNc3ccnc4cc(Cl)ccc34)n2)cc1"
  assignedCategory: -1
- givenSmiles: "O=C(Nc1cccc(NS(=O)(=O)c2ccc(F)cc2)c1)c1ccc(-c2ccccc2)cc1"
  assignedCategory: -1
- givenSmiles: "COC(=O)c1ccc(-c2nc3cc(F)c(F)cc3nc2C#N)cc1"
  assignedCategory: -1
- givenSmiles: "COc1cccc(-c2nc(-c3ccc(NS(=O)(=O)c4ccccc4)cc3)[nH]c2-c2ccnc(Br)c2)c1"
  assignedCategory: -1
- givenSmiles: "Clc1ccc(N2COOC3(OOC2)C2CC4CC(C2)CC3C4)cc1"
  assignedCategory: -1
- givenSmiles: "O=C(Nc1ncc([N+](=O)[O-])s1)c1cccc([N+](=O)[O-])c1"
  assignedCategory: -1
- givenSmiles: "CS(=O)(=O)c1ccc(Oc2nccc(-c3c(-c4ccc(F)cc4)ncn3C3CCNCC3)n2)cc1"
  assignedCategory: -1
- givenSmiles: "COc1cc2c3c(n(CCCO)c(=O)c2cc1OC)-c1cc2c(cc1C3=O)OCO2"
  assignedCategory: -1
- givenSmiles: "C=C(CN1CCc2ccccc2C1)c1ccc(/C=C/C(=O)Nc2ccccc2N)cc1"
  assignedCategory: -1

###

Listed compounds paired with reported TGI
# Tested on: K-562 leukemia
# procedureDetails: NCI tumour cell line growth inhibition, 48 h

- compound: "CCOC(=O)CCN1C(=O)c2ccc(NC(=O)C(=O)O)cc2S1(=O)=O"
  targetOfAssay: "K-562 leukemia"
  TGI: "> 100 µM"
- compound: "COc1ccc(-c2c(C#N)c(N)n(C3OCC(O)C(O)C3O)c(=S)c2C#N)cc1 (centres undefined)"
  targetOfAssay: "K-562 leukemia"
  TGI: "> 100 µM"
- compound: "CN(O)C(=O)c1ccc(OCc2cccc(Cl)c2)cc1"
  targetOfAssay: "K-562 leukemia"
  TGI: "> 100 µM"
- compound: "Cc1c2cc[n+](C)cc2c(C)c2c1[nH]c1ccc(OC(C)C)cc12"
  targetOfAssay: "K-562 leukemia"
  TGI: "> 46.4 µM"
- compound: "CCOC(=O)N(C)CCC1CC=CC(=O)C1c1cccc(OC)c1OC (centres undefined)"
  targetOfAssay: "K-562 leukemia"
  TGI: "> 100 µM"
- compound: "C(=C\\c1ccccc1)/Cn1nc(-c2ccccc2)nc1-c1cnccn1"
  targetOfAssay: "K-562 leukemia"
  TGI: "> 100 µM"
- compound: "COc1nc(N)nc2c1n(C)c[n+]2C"
  targetOfAssay: "K-562 leukemia"
  TGI: "> 100 µM"
- compound: "COC(=O)C/C(C)=C/[C@@H](O)[C@H]1O[C@@H]2CC/C(Cl)=C/C/C=C(/C)[C@H](OC(C)=O)CC(=O)O[C@@H]1C2"
  targetOfAssay: "K-562 leukemia"
  TGI: "> 25 µM"
- compound: "NC(=O)c1csc(C2O[C@@H](COP(=O)(O)OP(=O)(O)OC[C@H]3OC(n4cnc5c(N)ncnc54)[C@H](O)[C@@H]3O)[C@H](O)[C@@H]2O)n1 (some centres undefined)"
  targetOfAssay: "K-562 leukemia"
  TGI: "> 100 µM"
